For each entry below, report its IC50 value.
Tested on: HCT116 p53+/+
Assay: Chemosensitivity, 96 h continuous exposure, MTT assay
Assay type: cell-based, human
Conditions: HCT116 p53+/+; read-out: Mean IC50 values
Procedure: All cell lines were purchased from and maintained as monolayers as described by the American Type Culture Collection with the exception of the p53^+/+ and p53^−/− isogenic clones of HCT116 human colorectal adenocarcinoma cells which were a kind gift from Professor Bert Vogelstein[54]. […] The response of cells following a continuous 96-h exposure to test compounds and platinates was determined using the MTT assay. […]
Give bare numbers, in nM.

Below, 2 compounds whose answers are already recorded.
INSERT INTO results (compound, reported_measurement) VALUES
  ('CC(=O)[O-].CC(=O)[O-].CC(=O)[O-].O=P([O-])([O-])[O-].[Zn+2].[Zn+2].[Zn+2].c1ccc(-c2csc(NCCN(CCNc3nc(-c4ccccn4)cs3)CCNc3nc(-c4ccccn4)cs3)n2)nc1.c1ccc(-c2csc(NCCN(CCNc3nc(-c4ccccn4)cs3)CCNc3nc(-c4ccccn4)cs3)n2)nc1 [[L2Zn3(PO4)]3+]', 218),
  ('O=P(O)(O)Oc1ccccc1.[Zn+2].[Zn+2].[Zn+2].c1ccc(-c2csc(NCCN(CCNc3nc(-c4ccccn4)cs3)CCNc3nc(-c4ccccn4)cs3)n2)nc1.c1ccc(-c2csc(NCCN(CCNc3nc(-c4ccccn4)cs3)CCNc3nc(-c4ccccn4)cs3)n2)nc1 [[L2Zn3(O3POPh)]4+]', 64);

Now, please, on to the next compound.
Q: Record request: IC50 value, item O=P([O-])([O-])[O-].[Cu+2].[Cu+2].[Cu+2].c1ccc(-c2csc(NCCN(CCNc3nc(-c4ccccn4)cs3)CCNc3nc(-c4ccccn4)cs3)n2)nc1.c1ccc(-c2csc(NCCN(CCNc3nc(-c4ccccn4)cs3)CCNc3nc(-c4ccccn4)cs3)n2)nc1 [[L2Cu3(PO4)]3+]
Result: 3390

* * *

Would you mind telling me the reported Selectivity indices relative to MCF10A, Ratio + anion:no anion of each entry?
Tested on: A549
Assay: Chemosensitivity, 96 h continuous exposure, MTT assay
Type: cell-based, human
Conditions: ratio of SI (MCF 10A), A549
Procedure: All cell lines were purchased from and maintained as monolayers as described by the American Type Culture Collection with the exception of the p53^+/+ and p53^−/− isogenic clones of HCT116 human colorectal adenocarcinoma cells which were a kind gift from Professor Bert Vogelstein[54]. […] The response of cells following a continuous 96-h exposure to test compounds and platinates was determined using the MTT assay. […]
One number for each entry.

Example cases with answers are listed next.
INSERT INTO measurements (molecule, assayed_target, reported_measurement) VALUES
  ('CC(=O)[O-].CC(=O)[O-].CC(=O)[O-].CC(=O)[O-].CC(=O)[O-].CC(=O)[O-].[Zn+2].[Zn+2].[Zn+2].c1ccc(-c2csc(NCCN(CCNc3nc(-c4ccccn4)cs3)CCNc3nc(-c4ccccn4)cs3)n2)nc1.c1ccc(-c2csc(NCCN(CCNc3nc(-c4ccccn4)cs3)CCNc3nc(-c4ccccn4)cs3)n2)nc1 [[L2Zn3]6+]', 'A549', 1),
  ('O=P([O-])([O-])Oc1ccccc1.[Cu+2].[Cu+2].[Cu+2].c1ccc(-c2csc(NCCN(CCNc3nc(-c4ccccn4)cs3)CCNc3nc(-c4ccccn4)cs3)n2)nc1.c1ccc(-c2csc(NCCN(CCNc3nc(-c4ccccn4)cs3)CCNc3nc(-c4ccccn4)cs3)n2)nc1 [[L2Cu3(O3POPh)]4+]', 'A549', 0.146);

Query molecule follows.
Q: Need Selectivity indices relative to MCF10A, Ratio + anion:no anion of O=P(O)(O)Oc1ccccc1.[Zn+2].[Zn+2].[Zn+2].c1ccc(-c2csc(NCCN(CCNc3nc(-c4ccccn4)cs3)CCNc3nc(-c4ccccn4)cs3)n2)nc1.c1ccc(-c2csc(NCCN(CCNc3nc(-c4ccccn4)cs3)CCNc3nc(-c4ccccn4)cs3)n2)nc1 [[L2Zn3(O3POPh)]4+] , thanks.
Result: 0.177

Origin of values: paper PMC8222254
